Sourced from patent US20240376151A1

# TESTED_TARGET: beta-catenin (Homo sapiens, UniProt P35222)
# Construct: made in house; host or cells: E. coli BL21 (DE3) pLysS
# Sequence (P35222 134-665): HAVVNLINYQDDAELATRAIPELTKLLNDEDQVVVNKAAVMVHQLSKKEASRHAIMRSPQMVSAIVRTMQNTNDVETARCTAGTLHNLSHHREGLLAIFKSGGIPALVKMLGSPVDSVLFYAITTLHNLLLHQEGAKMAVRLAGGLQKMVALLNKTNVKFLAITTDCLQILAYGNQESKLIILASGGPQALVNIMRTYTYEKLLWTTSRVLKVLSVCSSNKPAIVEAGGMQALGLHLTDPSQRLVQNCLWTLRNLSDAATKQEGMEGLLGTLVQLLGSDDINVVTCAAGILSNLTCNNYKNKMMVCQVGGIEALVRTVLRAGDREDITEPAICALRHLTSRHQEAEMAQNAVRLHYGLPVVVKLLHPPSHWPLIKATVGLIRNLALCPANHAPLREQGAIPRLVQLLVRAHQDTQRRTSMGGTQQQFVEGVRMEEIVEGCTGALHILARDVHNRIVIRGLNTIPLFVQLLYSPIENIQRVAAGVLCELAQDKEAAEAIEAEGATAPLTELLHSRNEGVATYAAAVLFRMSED
# EXPERIMENTAL_PROTOCOL: Phage Library Screening with NGS, beta-catenin
# Assay type: binding
# CONDITION_SUMMARY: BLANK, third column
Each item that follows carries a reported Target Concentration BLANK (phage screen NGS readout).
Please reply with the number alone, leaving off any unit.

Worked cases, Target Concentration BLANK (phage screen NGS readout) given:
- RECORD_SEQUENCE: "DPAYTYCQWAAEHCSLL"
  TESTED_TARGET: "beta-catenin (Homo sapiens, UniProt P35222)"
  REPORTED_RESULT: 1
- RECORD_SEQUENCE: "DPAMWICEHAALNCEIR"
  TESTED_TARGET: "beta-catenin (Homo sapiens, UniProt P35222)"
  REPORTED_RESULT: 0
- RECORD_SEQUENCE: "DPALWNCDHAALLCDHQ"
  TESTED_TARGET: "beta-catenin (Homo sapiens, UniProt P35222)"
  REPORTED_RESULT: 0
- RECORD_SEQUENCE: "DPAILDCQIAAIECEFA"
  TESTED_TARGET: "beta-catenin (Homo sapiens, UniProt P35222)"
  REPORTED_RESULT: 0
- RECORD_SEQUENCE: "DPATWHCDWAAEHCELL"
  TESTED_TARGET: "beta-catenin (Homo sapiens, UniProt P35222)"
  REPORTED_RESULT: 0
- RECORD_SEQUENCE: "DPANVECEWAAIHCSLV"
  TESTED_TARGET: "beta-catenin (Homo sapiens, UniProt P35222)"
  REPORTED_RESULT: 0
- RECORD_SEQUENCE: "DPAAQRCTWAAIHCELI"
  TESTED_TARGET: "beta-catenin (Homo sapiens, UniProt P35222)"
  REPORTED_RESULT: 2
- RECORD_SEQUENCE: "DPAFLDCHIAAWTCNEF"
  TESTED_TARGET: "beta-catenin (Homo sapiens, UniProt P35222)"
  REPORTED_RESULT: 0
- RECORD_SEQUENCE: "DPAEVDCIMAAHICVWD"
  TESTED_TARGET: "beta-catenin (Homo sapiens, UniProt P35222)"
  REPORTED_RESULT: 0
- RECORD_SEQUENCE: "DPAIFNCTMAALECTQI"
  TESTED_TARGET: "beta-catenin (Homo sapiens, UniProt P35222)"
  REPORTED_RESULT: 0

Per the record, DPASWRCEHAALNCQID has Target Concentration BLANK (phage screen NGS readout) of 0

Per the record, DPAESDCILAAYICYVE has Target Concentration BLANK (phage screen NGS readout) of 0

Per the record, DPAMIQCQWAAEHCELI has Target Concentration BLANK (phage screen NGS readout) of 0
